Reported solubility values for the following compounds.
Run description: Solubility in oil (sesame oil, benzyl benzoate), visual observation
Assay conditions: benzyl benzoate, oil or lipid, thermodynamic from solid

INSERT INTO measurements (compound, reported_value) VALUES
  ('CC(C)(C)C(=O)OCn1c(=O)ccc2ccc(OCCCCN3CCN(c4cccc5sccc45)CC3)cc21', '> 100 mg/mL'),
  ('COC(=O)OCN1C(=O)CCc2ccc(OCCCCN3CCN(c4cccc5sccc45)CC3)cc21', '> 100 mg/mL');

Q: Name the recorded solubility for CCCC(C)C(=O)OCN1C(=O)CCc2ccc(OCCCCN3CCN(c4cccc5sccc45)CC3)cc21 (stereo not shown) .
Ans: > 100 mg/mL

Q: Name the recorded solubility for O=C(NC1CCCCC1)OCn1c(=O)ccc2ccc(OCCCCN3CCN(c4cccc5sccc45)CC3)cc21 .
Ans: > 100 mg/mL

* * *

Reported solubility values for the following molecules.
Run description: physchem
Assay conditions: oil or lipid, thermodynamic from solid

INSERT INTO results (molecule, reported_value) VALUES
  ('O=C(Cc1ccccc1)OCN1C(=O)CCc2ccc(OCCCCN3CCN(c4cccc5sccc45)CC3)cc21 [Example 25]', '> 100 mg/mL');

Q: Name the recorded solubility for O=C(Cc1ccccc1)OCn1c(=O)ccc2ccc(OCCCCN3CCN(c4cccc5sccc45)CC3)cc21 [Example 26] .
Ans: > 100 mg/mL

* * *

Run description: Solubility in oil (sesame oil, benzyl benzoate), visual observation
Assay conditions: benzyl benzoate, oil or lipid, thermodynamic from solid
Reported solubility values for the following compounds.

INSERT INTO assay_data (compound, reported_value) VALUES
  ('O=C(NCc1ccco1)OCn1c(=O)ccc2ccc(OCCCCN3CCN(c4cccc5sccc45)CC3)cc21 [Example 110]', '> 100 mg/mL'),
  ('O=C(OCN1C(=O)CCc2ccc(OCCCCN3CCN(c4cccc5sccc45)CC3)cc21)c1ccoc1 [Example 96]', '> 100 mg/mL'),
  ('COC(=O)CN(C)C(=O)OCn1c(=O)ccc2ccc(OCCCCN3CCN(c4cccc5sccc45)CC3)cc21 [Example 73]', '> 100 mg/mL');

Q: Name the recorded solubility for O=C(OC/C=C/c1ccccc1)OCn1c(=O)ccc2ccc(OCCCCN3CCN(c4cccc5sccc45)CC3)cc21 [Example 140] .
Ans: > 100 mg/mL

* * *

Run description: Solubility in oil (sesame oil, benzyl benzoate), visual observation
Assay conditions: benzyl benzoate, oil or lipid, thermodynamic from solid
Reported solubility values for the following compounds.

Worked examples, 2 compounds total:
INSERT INTO assay_data (structure, reported_value) VALUES
  ('O=C(OCN1C(=O)CCc2ccc(OCCCCN3CCN(c4cccc5sccc45)CC3)cc21)C1CCCCCC1', '> 100 mg/mL'),
  ('CCOC(=O)OCN1C(=O)CCc2ccc(OCCCCN3CCN(c4cccc5sccc45)CC3)cc21', '> 100 mg/mL');

Q: Name the recorded solubility for O=C(NCc1ccccn1)OCn1c(=O)ccc2ccc(OCCCCN3CCN(c4cccc5sccc45)CC3)cc21 .
Ans: > 100 mg/mL

Q: Name the recorded solubility for CN(Cc1ccco1)C(=O)OCn1c(=O)ccc2ccc(OCCCCN3CCN(c4cccc5sccc45)CC3)cc21 .
Ans: > 100 mg/mL

* * *

Reported solubility values for the following compounds.
Run description: Solubility in oil (sesame oil, benzyl benzoate), visual observation
Assay conditions: benzyl benzoate, oil or lipid, thermodynamic from solid

Worked examples, 4 compounds total:
INSERT INTO results (structure, measurement_kind, reported_value) VALUES
  ('CCCCNC(=O)OCn1c(=O)ccc2ccc(OCCCCN3CCN(c4cccc5sccc45)CC3)cc21', 'solubility', '> 100 mg/mL'),
  ('O=C(OCn1c(=O)ccc2ccc(OCCCCN3CCN(c4cccc5sccc45)CC3)cc21)C1CCCCC1', 'solubility', '> 100 mg/mL'),
  ('O=C(OCN1C(=O)CCc2ccc(OCCCCN3CCN(c4cccc5sccc45)CC3)cc21)c1ccccc1', 'solubility', '> 100 mg/mL'),
  ('O=C(OCn1c(=O)ccc2ccc(OCCCCN3CCN(c4cccc5sccc45)CC3)cc21)C1CCCCCC1', 'solubility', '> 100 mg/mL');

Now for the compound whose solubility we want.
Q: Name the recorded solubility for CCOC(=O)CCNC(=O)OCn1c(=O)ccc2ccc(OCCCCN3CCN(c4cccc5sccc45)CC3)cc21 .
Ans: > 100 mg/mL
